Source: ChEMBL document CHEMBL2169811

- assay-system: Histone-lysine N-methyltransferase EHMT2 (Homo sapiens)
- Sequence (Q96KQ7 whole entry): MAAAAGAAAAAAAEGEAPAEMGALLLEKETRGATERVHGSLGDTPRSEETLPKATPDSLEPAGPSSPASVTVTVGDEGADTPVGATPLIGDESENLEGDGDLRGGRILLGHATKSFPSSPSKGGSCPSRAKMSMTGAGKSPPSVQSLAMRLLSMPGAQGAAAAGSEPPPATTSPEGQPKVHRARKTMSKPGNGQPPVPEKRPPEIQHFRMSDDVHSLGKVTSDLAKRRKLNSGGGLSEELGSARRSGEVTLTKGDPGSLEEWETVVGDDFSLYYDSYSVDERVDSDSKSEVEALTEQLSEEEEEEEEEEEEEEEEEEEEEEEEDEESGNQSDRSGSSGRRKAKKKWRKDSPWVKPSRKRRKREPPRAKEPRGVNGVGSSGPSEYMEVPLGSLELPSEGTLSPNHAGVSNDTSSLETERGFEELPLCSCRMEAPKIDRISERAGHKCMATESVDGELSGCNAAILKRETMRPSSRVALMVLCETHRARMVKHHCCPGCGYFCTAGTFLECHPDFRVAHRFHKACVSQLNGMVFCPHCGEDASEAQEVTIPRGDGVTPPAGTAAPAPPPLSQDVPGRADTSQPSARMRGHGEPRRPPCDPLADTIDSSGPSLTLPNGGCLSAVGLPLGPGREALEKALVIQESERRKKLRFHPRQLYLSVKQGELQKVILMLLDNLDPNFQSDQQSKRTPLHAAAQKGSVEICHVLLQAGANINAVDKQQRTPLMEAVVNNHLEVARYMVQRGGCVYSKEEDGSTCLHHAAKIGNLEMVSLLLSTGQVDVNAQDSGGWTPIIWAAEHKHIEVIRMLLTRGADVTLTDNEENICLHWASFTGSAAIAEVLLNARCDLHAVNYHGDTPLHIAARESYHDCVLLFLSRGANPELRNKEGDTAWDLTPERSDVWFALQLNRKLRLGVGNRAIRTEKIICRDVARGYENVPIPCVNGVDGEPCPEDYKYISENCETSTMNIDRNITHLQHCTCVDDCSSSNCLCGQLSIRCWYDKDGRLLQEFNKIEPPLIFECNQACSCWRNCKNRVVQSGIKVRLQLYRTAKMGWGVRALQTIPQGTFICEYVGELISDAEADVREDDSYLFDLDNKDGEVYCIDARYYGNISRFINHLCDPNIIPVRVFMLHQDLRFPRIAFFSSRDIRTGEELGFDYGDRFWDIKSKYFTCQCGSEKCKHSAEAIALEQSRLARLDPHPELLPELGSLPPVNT
- assay-notes: Inhibition of G9a
Property: pIC50; scope: individual compounds
On this scale, pIC50 is minus log10 of a concentration expressed in M (mol/L).

CN1C(=O)[C@@]23C[C@]4([C@]56C[C@@]78SS[C@@](C)(C(=O)N7[C@H]5Nc5ccccc56)N(C)C8=O)c5ccccc5N[C@@H]4N2C(=O)[C@]1(C)SS3 : 6.20

// map CN1C(=O)[C@]23CC4=CC=C[C@H](O)[C@H]4N2C(=O)[C@@]1(CO)SS3 to recorded pIC50 (system: Histone-lysine N-methyltransferase EHMT2 (Homo sapiens))
6.28

---

- assay-system: Histone-lysine N-methyltransferase EHMT2 (Homo sapiens, UniProt Q96KQ7)
- Sequence (Q96KQ7 whole entry): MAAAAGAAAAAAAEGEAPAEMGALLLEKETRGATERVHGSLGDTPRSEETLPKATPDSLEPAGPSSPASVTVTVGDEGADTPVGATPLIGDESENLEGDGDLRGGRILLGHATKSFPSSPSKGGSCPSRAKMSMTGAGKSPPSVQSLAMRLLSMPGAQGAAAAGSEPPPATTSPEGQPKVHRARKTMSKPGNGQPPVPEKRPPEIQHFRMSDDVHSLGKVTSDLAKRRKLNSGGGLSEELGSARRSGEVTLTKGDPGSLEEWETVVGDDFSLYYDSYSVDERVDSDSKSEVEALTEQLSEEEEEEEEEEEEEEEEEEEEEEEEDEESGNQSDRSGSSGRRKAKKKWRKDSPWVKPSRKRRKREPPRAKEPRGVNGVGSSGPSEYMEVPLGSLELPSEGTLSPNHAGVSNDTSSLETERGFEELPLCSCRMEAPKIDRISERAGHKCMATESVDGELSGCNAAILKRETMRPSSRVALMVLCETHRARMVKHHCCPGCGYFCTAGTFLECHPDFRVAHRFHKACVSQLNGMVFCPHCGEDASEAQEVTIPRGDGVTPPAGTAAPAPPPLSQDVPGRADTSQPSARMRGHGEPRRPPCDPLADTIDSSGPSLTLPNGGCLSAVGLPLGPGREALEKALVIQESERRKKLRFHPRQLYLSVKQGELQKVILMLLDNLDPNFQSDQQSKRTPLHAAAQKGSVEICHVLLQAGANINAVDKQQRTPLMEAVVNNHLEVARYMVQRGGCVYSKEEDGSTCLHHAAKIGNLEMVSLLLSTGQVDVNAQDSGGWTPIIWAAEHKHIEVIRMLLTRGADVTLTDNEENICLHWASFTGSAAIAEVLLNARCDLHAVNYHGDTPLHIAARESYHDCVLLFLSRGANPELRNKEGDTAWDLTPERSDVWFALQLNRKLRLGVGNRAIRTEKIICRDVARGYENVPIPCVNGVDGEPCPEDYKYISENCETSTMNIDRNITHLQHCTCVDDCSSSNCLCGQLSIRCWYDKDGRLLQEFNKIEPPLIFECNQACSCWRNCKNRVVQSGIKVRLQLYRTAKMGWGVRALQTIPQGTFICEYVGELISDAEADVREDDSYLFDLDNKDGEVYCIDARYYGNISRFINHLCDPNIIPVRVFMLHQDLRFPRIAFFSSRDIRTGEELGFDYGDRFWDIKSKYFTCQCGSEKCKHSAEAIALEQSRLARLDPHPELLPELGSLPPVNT
assay-metric: IC50

Sample CN1C(=O)[C@]23C[C@@]4([C@@]56C[C@]78SS[C@](CO)(C(=O)N7[C@@H]5Nc5ccccc56)N(C)C8=O)c5ccccc5N[C@H]4N2C(=O)[C@@]1(CO)SS3 — what was its IC50?
1700 nM

Try CN1C(=O)[C@H]2C[C@]3([C@]45C[C@@H]6C(=O)N(C)[C@H](CO)C(=O)N6[C@H]4Nc4ccccc45)c4ccccc4N[C@@H]3N2C(=O)[C@H]1CO next.
> 50000 nM

Try CN1C(=O)[C@@]23C[C@]4([C@]56C[C@@]78SS[C@@](CO)(C(=O)N7[C@H]5Nc5ccccc56)N(C)C8=O)c5ccccc5N[C@@H]4N2C(=O)[C@]1(CO)SS3 [CHAETOCIN] next.
2400 nM
